target: h5HT2B (Homo sapiens (Human), UniProt P41595); experiment: h5HT2B binding
Sequence (P41595 whole entry): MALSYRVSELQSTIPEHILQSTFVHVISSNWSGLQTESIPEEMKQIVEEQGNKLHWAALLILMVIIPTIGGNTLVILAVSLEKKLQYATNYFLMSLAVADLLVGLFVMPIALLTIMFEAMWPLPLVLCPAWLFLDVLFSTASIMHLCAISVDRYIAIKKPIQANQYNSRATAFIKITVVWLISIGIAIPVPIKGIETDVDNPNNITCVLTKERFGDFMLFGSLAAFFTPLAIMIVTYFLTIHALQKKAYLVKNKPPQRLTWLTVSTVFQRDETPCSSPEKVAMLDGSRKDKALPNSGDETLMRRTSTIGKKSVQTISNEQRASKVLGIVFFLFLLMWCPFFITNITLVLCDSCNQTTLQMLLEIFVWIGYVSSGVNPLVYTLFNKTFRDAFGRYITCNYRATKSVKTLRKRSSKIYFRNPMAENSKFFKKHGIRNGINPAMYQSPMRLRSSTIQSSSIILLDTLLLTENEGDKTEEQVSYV
Where a name gives a salt, the structure may show the parent alone.
property-measured: Ki (nM)
Use nM as the unit, but write only the number.

Query: Please supply the value of reported Ki for the item C[C@@H](Oc1ccc(Br)cc1OC1CNC1)c1cccc(C(F)(F)F)c1 [Example 113]
Result: 122

Query: Please supply the value of reported Ki for the item Clc1ccc(OC2CCc3ccccc3C2)c(OC2CNC2)c1 (stereo not drawn) [Example 164]
Result: 30

Query: Please supply the value of reported Ki for the item CN1CC[C@@H](Oc2ccc(Cl)cc2OCc2ccccc2)C1 [Example 91]
Result: 50

Query: Please supply the value of reported Ki for the item FC(F)(F)c1ccc(OCc2ccccc2)c(OC2CNC2)c1 [Example 201, hydrochloride]
Result: 184

Query: Please supply the value of reported Ki for the item Cc1ccc2c(c1)C(Oc1ccc(Cl)cc1OC1CNC1)CC2 (racemic) [Example 158]
Result: 36

Query: Please supply the value of reported Ki for the item FC(F)(F)c1cccc(COc2ccc(Cl)cc2OC2CNC2)n1 [Example 79]
Result: 248

Query: Please supply the value of reported Ki for the item Clc1ccc(C2(COc3ccc(Cl)cc3OC3CNC3)CCC2)cc1 [Example 188]
Result: 28

Query: Please supply the value of reported Ki for the item COc1ccc(CCOc2ccc(Cl)cc2OC2CNC2)cc1 [Example 194]
Result: 195

Query: Please supply the value of reported Ki for the item Clc1ccc(CCOc2ccc(Cl)cc2OC2CNC2)cc1 [Example 192]
Result: 22
